Cited source: the supplement of paper PMC6555819

Tested on: PPARg:RXRa 30nM:10nM, anti-RXR (NR concentration 30 nM, RXRa partner concentration 10 nM)
protocol notes: PBM binding z-score (relative to random genomic background probes); higher = stronger binding; sequences stand for … in GC…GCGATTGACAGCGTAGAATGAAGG
PBM binding z-score below 4 gives condition not met; PBM binding z-score at or above it gives condition met.

Solved cases (6 shown):
CGTCCAAGGTCAGCAGGTCAGTGAGAGCGACGTG
condition not met
TGTCAAAGTTCAATGGTAACGTAAGTATCCACAC
condition met
CAAACTCGGTCAAGGTCAAAGTCGGTTTGTGCCA
condition not met
TCTTATAGATCAAGCAGGTTAAGAAAGCCTGAGT
condition not met
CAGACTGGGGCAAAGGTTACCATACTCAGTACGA
condition met
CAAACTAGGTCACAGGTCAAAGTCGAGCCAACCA
condition met

Could you please find out whether CGTCCAAGGTCTAAGGTCAGTGAAGAGATGACGG has PBM binding z-score that meets 4 or exceeds it?
condition not met

Could you please find out whether ATATGAAGGTTAAGGGTCATTCAGGTTGGTTCGC has PBM binding z-score that meets 4 or exceeds it?
condition met

Could you please find out whether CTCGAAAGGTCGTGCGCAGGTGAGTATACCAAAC has PBM binding z-score that meets 4 or exceeds it?
condition not met

Could you please find out whether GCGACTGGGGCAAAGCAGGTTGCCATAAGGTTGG has PBM binding z-score that meets 4 or exceeds it?
condition not met

Could you please find out whether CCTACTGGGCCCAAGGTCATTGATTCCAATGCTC has PBM binding z-score that meets 4 or exceeds it?
condition met
